Just for reference, ChEMBL document CHEMBL1201862 is where these values come from.

tested on: A549; experiment: NCI tumour cell line growth inhibition, 48 h
The source made the active and inactive calls. Rule as the data show it: active = GI50 up to about 1.1 µM and inactive = higher.
GI50 values for the compounds below.

Would you please look over these solved cases?
query: // lookup GI50 for CN(Cc1c2ccccc2cc2ccccc12)S(=O)(=O)c1ccc(-c2c3nc(c(-c4ccc(S(=O)(=O)N(C)Cc5c6ccccc6cc6ccccc56)cc4)c4ccc([nH]4)c(-c4ccc(S(=O)(=O)N(C)Cc5c6ccccc6cc6ccccc56)cc4)c4nc(c(-c5ccc(S(=O)(=O)N(C)Cc6c7ccccc7cc7ccccc67)cc5)c5ccc2[nH]5)C=C4)C=C3)cc1
result: > 100 µM (inactive)

query: Then this compound: O=S1(=O)c2ccccc2N(O)C2=NCCN21
result: > 100 µM (inactive)

query: Then this compound: CCOC(=O)C1(c2ccccc2)CCCNCC1 (configuration not stated)
result: > 100 µM (inactive)

query: Then this compound: NC(=O)NC(=O)c1cnccn1
result: > 100 µM (inactive)

query: Then this compound: CS(=O)(=O)c1nc(-c2cc3c(c(S(C)(=O)=O)n2)CCC3)cc2c1CCC2
result: > 100 µM (inactive)

Others:
query: // lookup GI50 for O=C(O)c1ccccc1C(=O)Nc1cc2c(cc1Br)-c1ccccc1C2=O
result: > 100 µM (inactive)

query: Then this compound: CC(=O)OCc1cn(S(=O)(=O)c2ccc(C)cc2)cn1
result: 84.5 µM (inactive)

query: Then this compound: O=C1OCC=C1COC1OC(CO)C(O)C(O)C1O (configuration not stated)
result: > 100 µM (inactive)

query: Then this compound: CCOC(=O)NC(Nc1ccc(F)c(F)c1)(C(=O)OCC)C(F)(F)F (configuration not stated)
result: > 100 µM (inactive)

query: Then this compound: CCOC(=O)C1=C(NC(C)(C)C)OC/C1=N\NC(=O)Cc1ccccc1
result: > 100 µM (inactive)

query: Then this compound: COc1ccc(-c2c(-c3ccccc3)c(C)c3ccccn23)cc1
result: 87.3 µM (inactive)

query: Then this compound: COc1ccc(CCn2c(=O)c3ccccc3n(C)c2=O)cc1
result: 50.9 µM (inactive)

query: Then this compound: COc1ccc(-c2cc(=O)c3c(OC)c(OC)c(OC)c(OC)c3o2)c(OC)c1
result: 32.6 µM (inactive)

query: Then this compound: COc1nc2ncc([C@@H](O)[C@H](O)CO)nc2c(=O)n1C
result: > 100 µM (inactive)
